Where these numbers come from: paper PMC10855533

Target: hGal-3 protein (Homo sapiens, UniProt P17931)
Sequence (P17931 whole entry): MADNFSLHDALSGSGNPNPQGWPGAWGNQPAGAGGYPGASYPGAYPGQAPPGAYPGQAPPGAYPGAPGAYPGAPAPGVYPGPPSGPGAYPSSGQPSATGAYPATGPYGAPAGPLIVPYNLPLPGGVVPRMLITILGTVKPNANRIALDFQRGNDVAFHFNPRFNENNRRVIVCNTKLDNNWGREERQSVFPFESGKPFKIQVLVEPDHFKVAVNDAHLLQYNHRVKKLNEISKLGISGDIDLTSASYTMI
Assay: Competition STD 1H NMR titration against reference ligand TDG (5)
Type: binding
Conditions: referenced to TDG (5); times stronger binding than TDG

- compound: "OC[C@H]1O[C@@H](S[C@@H]2O[C@H](CO)[C@H](O)[C@H](OCc3ccccc3)[C@H]2O)[C@H](O)[C@@H](OCc2ccccc2)[C@H]1O [Compound 3]"
  Relative Affinity, Kd (ref.)/Kd (comp.): 24
- compound: "OC[C@H]1O[C@@H](S[C@@H]2O[C@H](CO)[C@H](O)[C@H](OCc3ccc4ccccc4n3)[C@H]2O)[C@H](O)[C@@H](OCc2ccc3ccccc3n2)[C@H]1O [Compound 1]"
  Relative Affinity, Kd (ref.)/Kd (comp.): 30
- compound: "OC[C@H]1O[C@@H](S[C@@H]2O[C@H](CO)[C@H](O)[C@H](OCc3ccc4ccccc4c3)[C@H]2O)[C@H](O)[C@@H](OCc2ccc3ccccc3c2)[C@H]1O [Compound 2]"
  Relative Affinity, Kd (ref.)/Kd (comp.): 94
- compound: "OC[C@H]1O[C@@H](S[C@@H]2O[C@H](CO)[C@H](O)[C@H](O)[C@H]2O)[C@H](O)[C@@H](O)[C@H]1O [Compound 5, Bis-(β-D-Galactopyranosyl)-Sulfane, reference compound]"
  Relative Affinity, Kd (ref.)/Kd (comp.): 1
